# credit: patent US20210032257A1

# System: NCIH2347
# run.description: Biomarker study proliferation (CellTiter-Glo)
# Type: cell-based
# applied.conditions: Homo sapiens, NCI-H2347, 168 h, read-out: Anti-proliferation effect IC50
# Experimental: Cancer cell lines are profiled to evaluate the anti-proliferative activity of a test compound in-vitro. […] After 15 minutes, luminescence is read using a plate reader. Data is analyzed in Excel and graphed in GraphPad Prism. Statistical analysis and p value is calculated using Mann-Whitney nonparameteric t tests using GraphPad Prism. […]
metric.name: IC50 (µM)
# number only, unit µM dropped from output

Ask: Specify reported IC50 for the compound shown: Cc1cc(NC2CCN(C(=O)O[C@H]3CCN(C(=O)/C=C/CN(C)C)C3)CC2)n2ncc(C(C)C)c2n1 [Example 1]
Reply: 0.661

---

# Test system: JURKAT
# run.description: Biomarker study proliferation (CellTiter-Glo)
# Assay type: cell-based
# applied.conditions: Homo sapiens, Jurkat, 168 h, read-out: Anti-proliferation effect IC50
metric.name: IC50

Ask: Lab note: record IC50 of `Cc1cc(NC2CCN(C(=O)O[C@H]3CCN(C(=O)/C=C/CN(C)C)C3)CC2)n2ncc(C(C)C)c2n1` tested on JURKAT.
Reply: 61 nM

---

# Test system: NCIH1734
# run.description: Biomarker study proliferation (CellTiter-Glo)
# Format: cell-based
# applied.conditions: Homo sapiens, NCI-H1734, 168 h, read-out: Anti-proliferation effect IC50
metric.name: IC50 (nM)
# number only, unit nM dropped from output

Ask: Specify reported IC50 for the molecule shown: `Cc1cc(NC2CCN(C(=O)O[C@H]3CCN(C(=O)/C=C/CN(C)C)C3)CC2)n2ncc(C(C)C)c2n1`
Reply: 24

---

# Tested on: cMyc in HCT116 cells
# run.description: cMyc cell based Acumen assay
# applied.conditions: Homo sapiens, HCT-116, 4 hours, read-out: Relative IC50 for cMyc
metric.name: pIC50
Recall that pIC50 is obtained by taking minus log10 of the concentration measured in molar.

Ask: Specify reported pIC50 for the molecule shown: Cc1cc(NC2CCN(C(=O)O[C@H]3CCN(C(=O)/C=C/CN(C)C)C3)CC2)n2ncc(C(C)C)c2n1 [Example 1]
Reply: 7.08

Ask: Specify reported pIC50 for the molecule shown: Cc1cc(NC2CCN(C(=O)O[C@@H]3CCN(C(=O)/C=C/CN(C)C)C3)CC2)n2ncc(C(C)C)c2n1 [Example 3]
Reply: 7.24

---

# System: CORL88
# run.description: Biomarker study proliferation (CellTiter-Glo)
# Type: cell-based
# applied.conditions: Homo sapiens, COR-L88, 168 h, read-out: Anti-proliferation effect IC50
metric.name: pIC50
Recall that pIC50 is obtained by taking minus log10 of the concentration measured in molar.

Ask: Specify reported pIC50 for the compound shown: `Cc1cc(NC2CCN(C(=O)O[C@H]3CCN(C(=O)/C=C/CN(C)C)C3)CC2)n2ncc(C(C)C)c2n1`
Reply: 5.38

---

# Tested on: HUH1
# run.description: Biomarker study proliferation (CellTiter-Glo)
# Type: cell-based
# applied.conditions: Homo sapiens, HuH-1, 168 h, read-out: Anti-proliferation effect IC50
metric.name: IC50

Ask: Specify reported IC50 for the compound shown: `Cc1cc(NC2CCN(C(=O)O[C@H]3CCN(C(=O)/C=C/CN(C)C)C3)CC2)n2ncc(C(C)C)c2n1`
Reply: 128 nM
